Please provide measured pKa for the entries that follow.
Assay: pKa of monomers by neutralization titration
Type: physicochemical
Details: tetrahydrofuran/water=6:4
Give bare numbers.

Kindly give each listed record's pKa.
1. C=C(C)C(=O)O [Methacrylic acid]
2. C=C(C)C(=O)NS(C)(=O)=O [Monomer 1]

1: 3.98; 2: 3.96

Recorded values, source patent US20090246481A1.
